Tested on: Trypanosoma cruzi
Assay: Trypanocidal activity against epimastigotes of Trypanosoma cruzi Tulahuen 2 assessed as inhibition of parasite growth after 4 days by trypan blue staining
Format: functional, organism-based
Conditions: Tulahuen 2, 96 h
pIC50: −log10 of the molar value.

Smiles structure	Experimental system	pIC50
COc1cccc2c1CC/C2=N\Nc1nc(-c2ccc(Cl)cc2)cs1	Trypanosoma cruzi	4.93
Cc1cccc2c1CC/C2=N\Nc1nc(-c2ccccc2)cs1	Trypanosoma cruzi	5.15
Cc1ccc(-c2csc(N/N=C3\CCc4c(C)cccc43)n2)cc1	Trypanosoma cruzi	5.36

###

Biological target: Cruzipain (Trypanosoma cruzi) (UniProt P25779)
Sequence (P25779 123-467 limits assumed): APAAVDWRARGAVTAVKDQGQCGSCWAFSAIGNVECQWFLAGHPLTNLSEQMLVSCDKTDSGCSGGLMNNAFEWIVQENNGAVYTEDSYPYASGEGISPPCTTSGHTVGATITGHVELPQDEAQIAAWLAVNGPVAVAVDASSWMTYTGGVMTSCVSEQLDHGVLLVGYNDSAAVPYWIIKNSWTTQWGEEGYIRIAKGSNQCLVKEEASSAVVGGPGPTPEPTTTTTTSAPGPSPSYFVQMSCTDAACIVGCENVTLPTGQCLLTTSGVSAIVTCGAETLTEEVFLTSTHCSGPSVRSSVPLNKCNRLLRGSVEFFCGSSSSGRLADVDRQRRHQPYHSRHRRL
Assay: Inhibition of epimastigotes of Trypanosoma cruzi cruzipain using Bz-Pro-Phe-Arg-pNA as substrate at 20 uM by spectrophotometric analysis

Smiles structure	inhibition (%)
COc1cc2c(cc1OC)/C(=N/Nc1nc(-c3ccc(C)cc3)cs1)CC2	0
Cc1ccc(-c2csc(N/N=C3\CCc4c(C)cccc43)n2)cc1	2
Cc1ccc2c(c1)/C(=N/Nc1nc(-c3ccccc3)cs1)CC2	0
Cc1ccc(-c2csc(N/N=C3\CCc4ccc(C)cc43)n2)cc1	0

The origin of these recorded values is ChEMBL document CHEMBL2062416.
